assay: NCI Yeast Anticancer Drug Screen. Data for the mec2-1 strain (AID 157); settings: S. cerevisiae mec2-1 strain, at 50.0 µM, stronger effect = higher value
This is part of a sample that, as a whole, favours compounds with a hit. Of some 79,000 tested, about 15% had one in any assay.
Would you kindly list growth inhibition for each of these molecules?
Give bare numbers, in %.

Consider the following illustrative entries.
{"MOLECULE": "COc1cc(N)c(OC)nn1", "UNIT_INFO": "%", "growth inhibition": 9.4}
{"MOLECULE": "CC(=O)c1cccc(NC(=O)Oc2ccc(Cl)cc2Cc2ccccc2)c1", "UNIT_INFO": "%", "growth inhibition": 50.2}

Dear reader, for each entry below, please note its growth inhibition.
1. COC(=O)C1=C(C(=O)OC)C2(CCCCCC2=O)OC1=O (centres undefined)
2. Nc1ccc(C(=O)NN2C(=O)C(Cl)C2c2ccccc2Cl)cc1 (centres undefined)

a:
1: 5.45; 2: 32.7

---

test: NCI Yeast Anticancer Drug Screen. Data for the cln2 rad14 strain (AID 165);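 note: 0% = growth equal to vehicle treated cultures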; settings: S. cerevisiae cln2 rad14 strain, at 50.0 µM, stronger effect = higher value
Compounds without any hit were thinned out: in the full panel of roughly 79,000, 15% have a hit.
For each entry below, report its growth inhibition value.
One number for each entry, in %.

{"COMPOUND": "O=S(=O)(O)C(O)Cc1cccc2ccccc12 (stereo unspecified)", "growth inhibition / %": -40.2}

// each listed compound needs a value for growth inhibition
1. COc1ccc(-n2cnc3[nH]ncc3c2=O)cc1
2. NC(=O)c1csc(NC2OC(CO)C(O)C(O)C2O)n1 (stereo unspecified)
3. C=CCOCn1cc(C)c(=O)[nH]c1=O
4. N#Cc1nc(C(O)c2ccccc2)oc1N (stereo unspecified)
5. c1ccc(N2CCCC2(c2ccccc2)c2ccccc2)cc1
6. O=c1oc2c(-c3c(O)c(=O)oc4ccccc34)cc(O)cc2s1
7. O=CNNC(=O)CN1C(=O)c2ccccc2C1=O
8. O=C(O)C1CC(Cl)C(O)C(Cl)C1 (stereo unspecified)

a:
-0.85
14.8
5.5
11.8
-11.8
17.1
17.8
-56.3

Provide reported growth inhibition for each item, in the same order as listed.
1. CCOC1(C)Oc2cc3c(cc2C(c2cc(OC)c(OC)c(OC)c2)C1C)OCO3 (stereo unspecified)
2. Cc1[nH]c(=O)[nH]c(=O)c1C(=O)N(CCO)Cc1ccccc1

a:
[-29.4, 7.7]

---

Assay: NCI Yeast Anticancer Drug Screen. Data for the mec2-1 strain (AID 157)
Details: S. cerevisiae mec2-1 strain, at 50.0 µM, stronger effect = higher value
Protocol: Growth inhibition of yeast strains with defined genetic alterations is measured as a screen for potential anti-cancer activity. Selected strains with alterations in DNA damage repair or cell cycle control were exposed to compounds and growth inhibition was measured relative to vehicle treated controls. The strain used in this assay is mec2-1
About 79,000 compounds went through this panel and 15% of them were active in at least one assay; those are over-represented in the sample as a whole.
OBSERVED_PROPERTY: growth inhibition (%)
Give bare numbers, in %.

These recorded examples may help you get a feel for the data.
{"COMPOUND": "O=[N+]([O-])c1ccc(Cl)c(OCCBr)c1", "growth inhibition (%)": 3.15}
{"COMPOUND": "CC(=O)OCC1OC(Sc2ccc([N+](=O)[O-])cc2)C(OC(C)=O)C(OC(C)=O)C1OC(C)=O (stereo not drawn)", "growth inhibition (%)": -11.8}
{"COMPOUND": "O=C(O)c1[nH]c2ccccc2c(=O)c1-c1ccccc1", "growth inhibition (%)": -31.5}
{"COMPOUND": "CC(=O)NC(C(=O)O)C(C)(C)S (stereo not drawn)", "growth inhibition (%)": -48.9}
{"COMPOUND": "COc1ccc(C(=O)c2ccc(OC)c3ccccc23)c2ccccc12", "growth inhibition (%)": -5.8}

For each listed entry, give its growth inhibition.
1. O=C(O)CNC(=O)Cc1ccccc1
2. CCOC(OCC)C(=O)NC(C)c1ccc(O)c(OC)c1 (stereo not drawn)
3. O=C1c2cc([N+](=O)[O-])ccc2-c2c(F)cccc21

a:
1. -12.6
2. 7.95
3. 8.25
